Readings of growth for the listed compounds
# Tested on: SF-295 CNS
# protocolNotes: NCI-60 one-dose screen, 48 h (100 = growth as untreated, 0 = no growth, -100 = all killed)
# testParameters: 10 µM
The panel holds about 83,000 compounds, 20% with a hit somewhere; the sample as a whole holds those more often. The source made the active and inactive calls. How the source made its calls: active means growth percent below 10; inactive means the rest.

Worked examples, 3 compounds total:
compound: c1ccc([I+]c2ccccc2)cc1
endpointResult: 81% (inactive)
//
compound: COC(=O)C1(C)Cc2cc(OC(C)=O)c(OC(C)=O)cc2N1 (centres undefined)
endpointResult: 121% (inactive)
//
compound: O=[N+]([O-])c1cccc(-c2ncc(-c3ccc(Cl)cc3Cl)[nH]2)c1
endpointResult: 93.7% (inactive)

The measured growth associated with "CCCCCCc1cc(N=Nc2ccc(S(=O)(=O)Nc3cc(C)nc(C)n3)cc2)c(O)cc1O" reads 98.7% (inactive)

---

Readings of growth for the listed compounds
# System: HS 578T breast
# protocolNotes: NCI-60 one-dose screen, 48 h (100 = growth as untreated, 0 = no growth, -100 = all killed)
# testParameters: 10 µM
About 83,000 compounds went through this panel and 20% of them were active in at least one assay; those are over-represented in the sample as a whole.
Provide only the numeric value, understood in %.

Worked examples, 5 compounds total:
compound: COc1cc(CNc2ccccc2C(=O)N2CCN(C(=O)c3cc(-c4cc(OC)c(OC)c(OC)c4)n4nc(-c5ccccc5)cc4n3)CC2)cc(OC)c1OC
testedSystem: HS 578T breast
growth [%]: 42.9

compound: COc1ccc(/C=C/C(C)=N/OCC(=O)O)cc1
testedSystem: HS 578T breast
growth [%]: 113

compound: Cc1occc1-c1nnc(SCC(=O)c2ccc(NC(=O)CC(C)C)cc2)o1
testedSystem: HS 578T breast
growth [%]: 119

compound: COc1ccc([N+](=O)[O-])c(C(=O)O)c1
testedSystem: HS 578T breast
growth [%]: 98.1

compound: CCCN(CCC)CCC(O)c1cc2c(c3ccccc13)CCCC2 (stereo unspecified)
testedSystem: HS 578T breast
growth [%]: 88

The measured growth associated with "CN(Cc1ccccc1)Cc1ccc([N+](=O)[O-])cc1I" reads 95.4

The measured growth associated with "CCN(CC)CCOc1nc2ccccc2c2c1-c1ccc(OC)cc1C2=O" reads 1.77

The measured growth associated with "COc1ccc(N=C2C(=Nc3ccc(OC)cc3)N(c3ccc(N(C)C)cc3)C(=S)N2c2ccc(OC)cc2)cc1" reads 19.6

---

# System: SF-268 CNS
# protocolNotes: NCI-60 one-dose screen, 48 h
# testParameters: 10 µM
This is part of a sample that, as a whole, favours compounds with a hit. Of some 83,000 tested, about 20% had one in any assay. The source made the active and inactive calls. How the source made its calls: active means growth percent below 10; inactive means the rest.
Respond with a class label; see Yes = active, No = inactive

compound: CCOC(=O)C1(CC(C)C)CCOC1=O (centres undefined)
assignedClass: No
--
compound: Cc1nc2c(c(=O)[nH]1)OCN(Cc1ccccc1)C2
assignedClass: No

API: the following record is the query input.
Query: Test call for this compound, please: "Cc1c(Cl)cccc1NC(=O)c1sc2nc3c(cc2c1N)C(=O)CCC3"
Result: No

---

# Test system: RPMI-8226 leukemia
# protocolNotes: NCI-60 one-dose screen, 48 h (100 = growth as untreated, 0 = no growth, -100 = all killed)
# testParameters: 10 µM
The panel holds about 83,000 compounds, 20% with a hit somewhere; the sample as a whole holds those more often.
Readings of growth for the listed compounds
Provide only the numeric value, understood in %.

compound: CN(C)CCOc1nc2ccccc2c2c1-c1ccc(Cl)cc1C2=O
readingUnit: %
endpointResult: -23.4

compound: O=C(CSSCC(=O)c1ccc(Cl)cc1)c1ccc(Cl)cc1
readingUnit: %
endpointResult: 24.9

Turning now to a further compound:
The observed growth for COc1ccc2c(c1)N(CCO)C1=C(C(=O)OC1)C2c1ccc(OC)c(OC)c1 (stereo unspecified) when tested with RPMI-8226 leukemia stands at 62.9
